System under test: Aspartate--tRNA(Asp/Asn) ligase (Mycobacterium tuberculosis (strain ATCC 25618 / H37Rv)) (UniProt P9WFW3)
Sequence (whole entry): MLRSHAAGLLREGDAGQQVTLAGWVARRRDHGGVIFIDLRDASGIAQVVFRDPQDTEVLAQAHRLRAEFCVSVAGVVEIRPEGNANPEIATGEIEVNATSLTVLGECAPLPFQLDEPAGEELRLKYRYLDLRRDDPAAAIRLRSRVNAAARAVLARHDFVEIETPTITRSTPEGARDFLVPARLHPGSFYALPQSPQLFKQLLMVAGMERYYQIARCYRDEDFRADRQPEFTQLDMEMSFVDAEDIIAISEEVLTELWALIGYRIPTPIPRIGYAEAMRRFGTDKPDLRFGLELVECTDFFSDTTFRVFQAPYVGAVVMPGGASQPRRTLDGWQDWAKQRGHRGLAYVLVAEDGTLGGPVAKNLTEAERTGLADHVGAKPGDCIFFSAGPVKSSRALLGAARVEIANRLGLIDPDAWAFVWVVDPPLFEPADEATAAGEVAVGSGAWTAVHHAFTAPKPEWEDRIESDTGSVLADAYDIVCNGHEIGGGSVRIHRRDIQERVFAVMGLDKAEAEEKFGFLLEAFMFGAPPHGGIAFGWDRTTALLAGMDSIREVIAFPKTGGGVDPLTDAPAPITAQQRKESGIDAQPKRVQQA
Test summary: Assay for Asp RNA synthetase-1 from Mycobacterium tuberculosis
Format: functional
Parameters: scale not given: in the data most compounds retested in dose-response had high values
Condition context: 30 µM
Reported metric: Percent Effect (%)
Express the result in % but write the number alone.

[in] Reported Percent Effect for CCNC(=O)Nc1ccc2c(ccn2CC(=O)N(CC)CC)c1 : what is it?
[out] -3.17

[in] What about this molecule? Cc1nnc2n1CCN(Cc1csc(CC(=O)N(C)C)n1)C2
[out] 2.24

[in] Try this molecule next: CCn1ccnc1CN1CCC(N(C)Cc2ncc(C)o2)C1 (stereo not drawn)
[out] -4.45

[in] What do you get for NC(=O)CN1CCC(NC(=O)Nc2nccs2)CC1 ?
[out] -4.06

[in] Next entry: CCN(CCc1ccccc1)Cn1nc(C)c2c(C)onc2c1=O
[out] 5.17

[in] Same question, CCc1noc(C(C)N2CCN(c3ccc(C#N)cn3)CC2)n1 (stereo not drawn) this time
[out] -2.49

[in] Moving on to the next molecule: CC(C)N1CCOCC2(CN(Cc3nccs3)CCO2)C1 (stereo not drawn)
[out] 2.14

[in] Same lookup for CN(C)C(=O)N1C[C@@H]2CC[C@H](C1)N(Cc1ccc3nsnc3c1)C2 , please.
[out] 6.27

[in] Consider next the molecule Cc1cccnc1CN1CCC(c2nnc(Cn3cccn3)n2C)CC1 in the same way.
[out] -1.2

[in] Then Cc1nc(C2CCCN2C(=O)c2cc3c(s2)CCCC3)no1 (stereo not drawn) ?
[out] -1.23

[in] Next entry: COc1ccc(C(C)N2CCN(Cc3nccn3C)CC2)cc1Cl (stereo not drawn)
[out] -0.0303

[in] Again, but for Cc1nc(C)n(CC2CCCCN2CCC(=O)Nc2cc(C)on2)n1 (stereo not drawn)
[out] -3.42

[in] Now give it for CCc1cnc(N2CC3(CCN(C(=O)c4ccoc4)C3)C2)nc1 too.
[out] -4.49

[in] Consider next the molecule Cc1nc(CN2CCCC2c2nc(C(C)C)no2)cs1 (stereo not drawn) in the same way.
[out] -4.9

[in] Also CC(C(=O)NCc1ccnc(N(C)C)c1)n1cncn1 (stereo not drawn) , if possible.
[out] 0.0335

[in] Same lookup for c1ccc(-c2cc(CN3CCC(c4ccn[nH]4)CC3)on2)cc1 , please.
[out] 2.46

[in] Also CCc1ccc(C(=O)NC2CCN(c3cnn(C)c3)C2=O)o1 (stereo not drawn) ?
[out] 3.57

[in] Likewise for O=C(NCCOc1ncc(Cl)cc1Cl)c1ccncc1 ?
[out] 5.64

[in] Same question for COc1ccc(C)cc1CN1CCCC1Cn1nc(C)nc1C (stereo not drawn) please.
[out] -7.82

[in] Further, for NC(=O)C1CCN(c2nc3nccc(-c4ccccn4)c3c(=O)[nH]2)CC1 ?
[out] 1.02

[in] Moving on to the next molecule: O=C(c1ccc(-n2cccn2)nc1)N1CCCN(c2cccnn2)CC1
[out] -4.61

[in] What about CC(C)c1nc(CN2CCCN(Cc3nnc(C4CC4)o3)CC2)no1 ?
[out] -3.22

[in] And then CN(C)CCO[C@H]1CN(Cc2cccc(C#N)c2)[C@@H]2COC[C@H]12 , what is it?
[out] 1.95

[in] For Cc1cnn(CC2CCCN2C(=O)c2nccc3ccccc23)c1 (stereo not drawn) then?
[out] 3.06

[in] And the next one, O=C(O)c1ccc(F)c(S(=O)(=O)Nc2c(F)cccc2-n2cccn2)c1 ?
[out] -1.78

[in] Another molecule: CC(c1ccco1)N(C)Cc1nc2c(cnn2C)c(=O)[nH]1 (stereo not drawn)
[out] -2.56

[in] Now the same for COc1ccc(C2CC(=O)Nc3c2nc2n3CCCC2)cc1OC (stereo not drawn)
[out] 0.342

[in] Follow-up item: COc1ccc(CN(C)Cc2nc3c(cnn3C)c(=O)[nH]2)cc1OC
[out] -3.27

[in] Next: CCS(=O)(=O)N1CCO[C@H]2[C@H](OCC3CCCC3)CC[C@@H]21
[out] -2.82

[in] Also check CCN(CC1CN(CCc2ccccn2)CCO1)c1cccnn1 (stereo not drawn)
[out] -1

[in] Follow-up entry: CCc1nnc(CNCC2CCN(CC(O)c3ccccc3)CC2)o1 (stereo not drawn)
[out] -2.95

[in] Please answer likewise for CCn1cnnc1C1CCN(C(=O)c2cnc3ccccc3n2)CC1
[out] -1.17

[in] Repeat for the following molecule: Cc1nn(C)c(C)c1CNC1CCOc2ccccc21 (stereo not drawn)
[out] -0.466

[in] Next molecule up: Cc1[nH]c2ccccc2c1-c1ccnc(NCCN2CCOCC2)n1
[out] 7.28

[in] // repeat for Cc1c(F)cc(C(=O)O)cc1S(=O)(=O)Nc1ccc2c(c1)OCCO2 and report
[out] 2.32

[in] Further, for O=C1N(Cc2cccnc2)CCC12CCCNC2 (stereo not drawn) ?
[out] 2.62

[in] Record: Cc1nc(C)n(CC2CCCN2Cc2nc3ccccc3n2C)n1 (stereo not drawn)
[out] -7.69

[in] Moving on to CN(Cc1csc(-c2cccs2)n1)C(=O)CCn1ccccc1=O
[out] -1.85

[in] # repeat for CC(C)N1CCC(CNCc2c[nH]nc2C(C)(C)C)C1 (stereo not drawn)
[out] 7.32

[in] Next molecule up: Cc1nc(CN(C)C2CCN(CC(=O)NC3CCOCC3)C2)no1 (stereo not drawn)
[out] -1.22

[in] Note, next up: Cn1cnc(S(=O)(=O)NCCN2CCCCCC2=O)c1Cl
[out] -1.7

[in] // same read-out, input: O[C@H]1CCN(Cc2ccoc2)[C@H]1Cc1cccnc1
[out] 6.58

[in] Lookup O=C(CCc1ccccc1F)NS(=O)(=O)c1ccc2c(c1)OCCCO2
[out] 2.29

[in] Then CN1CC[C@H](c2ccccc2)[C@@H]2[C@H]1CCCCN2C(=O)c1cnccn1 ?
[out] -3.68

[in] Next: FC1(F)CCN(Cc2ccccn2)CC12CCN(c1cccnc1)C2 (stereo not drawn)
[out] 1.08

[in] Param item: Fc1cnc(N2CCOCC3(CCCN(c4nncs4)C3)C2)nc1 (stereo not drawn)
[out] -3.89

[in] Subsequent entry: Cc1nc(N2CCCCC2)ncc1-c1cc(O)[nH]n1
[out] -0.348

[in] // next record CC(=O)N1CCC2(CC1)COCCN2CCN(C)C
[out] 0.524

* * *

System under test: Aspartate--tRNA(Asp/Asn) ligase (Mycobacterium tuberculosis (strain ATCC 25618 / H37Rv))
Test summary: Assay for Asp RNA synthetase-1 from Mycobacterium tuberculosis
Assay type: functional
Design: scale not given: in the data most compounds retested in dose-response had high values
Condition context: 30 µM
Reported metric: Percent Effect
Write the quantity with the unit trailing the number.

[in] Give its Percent Effect value. Item: O=C(N1CCCO1)[C@@]12CCO[C@@H]1CCN(C1CCCCC1)C2
[out] -5.76%

[in] And what about the compound Cc1csc2c(=O)n3c(nc12)CCN(C(=O)c1cccnc1)CC3 ?
[out] -0.521%

[in] Could you do the same for CCc1cnc(CN(C(C)=O)C2CCN(CCS(C)(=O)=O)C2)o1 (stereo unspecified) , please?
[out] -3.9%

[in] Again, but for Cc1ncsc1C(=O)NCCn1nc2ccccn2c1=O
[out] -1.86%

[in] Also c1cc(CN2CCCC(c3noc(C4CC4)n3)C2)no1 (stereo unspecified) , if possible.
[out] -0.285%

[in] Also need COCCC(=O)N1CC[C@@H](N(C)C)[C@@H]1Cc1ccccc1 , thanks.
[out] -3.16%

[in] // same read-out, input: O=C(NCCNc1ccc(C(F)(F)F)cn1)c1cncc(Br)c1
[out] 3.26%

[in] How about this compound: Cn1ncc2c1CCCC2NCc1cnc(-c2ccccc2)nc1 (stereo unspecified)
[out] 8.81%

[in] Try the compound CC(O)CN1CCN(C(=O)c2ccc(Br)o2)CC1 (stereo unspecified)
[out] -2.21%

[in] Can you check Cc1nc(C)n(C2CCCN(C(=O)Cc3n[nH]c4ccccc34)C2)n1 (stereo unspecified) next?
[out] 2.55%

[in] Follow-up entry: CN(C)S(=O)(=O)c1ccc(CN2CCCC2c2ccc[nH]2)o1 (stereo unspecified)
[out] -3.62%
